tested on: HEL; assay: The compound was tested for antiviral activity by measuring the concentration required to reduce plaque formation against Varicella zoster TK+YS strain; assay type: functional, cell-based; conditions: Homo sapiens
Reported property: IC50 (µM)

Example entries begin here.
O=c1[nH]c(=O)n([C@H]2C[C@H](O)[C@@H](CO)O2)cc1/C=C/Br [BRIVUDINE]: 0.005
O=C1O/C(=C\Cn2cnc3c(-n4cccc4)ncnc32)C(OCc2ccccc2)=C1OCc1ccccc1: 1.5
Nc1nc2c(ncn2COCCO)c(=O)[nH]1 [ACYCLOVIR]: 0.78
O=C1O/C(=C\Cn2cc(C(F)(F)F)c(=O)[nH]c2=O)C(OCc2ccccc2)=C1OCc1ccccc1: 0.5
O=C1O/C(=C\Cn2cc(F)c(=O)[nH]c2=O)C(OCc2ccccc2)=C1OCc1ccccc1: 3.8

[I] O=C1O/C(=C\Cn2cc(I)c(=O)[nH]c2=O)C(OCc2ccccc2)=C1OCc1ccccc1
[II] O=C1O/C(=C\Cn2ccc(=O)[nH]c2=O)C(OCc2ccccc2)=C1OCc1ccccc1
q: Form: Entry with minimum IC50 (choose one): I / II Answer by stating the label of the chosen item.
a: I
(I: 1.4 µM, II: 3.4 µM)
